Measured recombinant barcode read abundance (log10) by item
- assay.text: recombinant barcode read abundance after kanamycin selection (control-corrected) (log10(CPM+1)); higher = more efficient recombination; sequences stand for … in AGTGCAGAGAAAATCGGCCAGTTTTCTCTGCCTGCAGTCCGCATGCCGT…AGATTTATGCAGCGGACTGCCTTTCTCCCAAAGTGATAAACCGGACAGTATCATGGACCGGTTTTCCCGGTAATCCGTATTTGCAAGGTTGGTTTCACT; site = the 11-nt target;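 also: IS621 recombinase and bridge RNA in Escherichia coli cells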

seq	value.measured
ACGTGGTCTTGGGTTCTAACCTGTTGCTA (site ACGTGGTCTTA)	0.582

*Q* // recombinant barcode read abundance (log10) lookup, key: TCTAAACCTTGGGTTCTAACCTGTTGCAT (site TCTAATCCTAT)
*A* 0.229

*Q* // recombinant barcode read abundance (log10) lookup, key: TGAGATTCTTGGGTTCTAACCTGTTGCAT (site TGTGATCCTAT)
*A* 0.0159

*Q* // recombinant barcode read abundance (log10) lookup, key: GTGCACTCTTGGGTTCTAACCTGTTGCGG (site GTGCACTCTCC)
*A* 2.13

*Q* // recombinant barcode read abundance (log10) lookup, key: CTAAATCCTTGGGTTCTAACCTGTTGCAT (site CTAATTCCTAT)
*A* 0.232

*Q* // recombinant barcode read abundance (log10) lookup, key: GGGGATTCTTGGGTTCTAACCTGTTGCCT (site GTGGATGCTAG)
*A* 0.0823

*Q* // recombinant barcode read abundance (log10) lookup, key: TCTAAGCCTTGGGTTCTAACCTGTTGCAT (site TCTAACCCTAT)
*A* 0.259

*Q* // recombinant barcode read abundance (log10) lookup, key: TAGACCTCTTGGGTTCTAACCTGTTGCCT (site AAGACCTCTAG)
*A* 0.113

*Q* // recombinant barcode read abundance (log10) lookup, key: TAGTTAGCTTGGGTTCTAACCTGTTGCCA (site TAGTTAGCTGG)
*A* 0.0516

*Q* // recombinant barcode read abundance (log10) lookup, key: GACACGCCTTGGGTTCTAACCTGTTGCCT (site GACACGCCTAG)
*A* 0.156

*Q* // recombinant barcode read abundance (log10) lookup, key: AACACGACTTGGGTTCTAACCTGTTGCCT (site AACACGACTAG)
*A* 0.711

*Q* // recombinant barcode read abundance (log10) lookup, key: CGTCCTGCTTGGGTTCTAACCTGTTGCCT (site TGTCCTGCTAG)
*A* 0.0535

*Q* // recombinant barcode read abundance (log10) lookup, key: AGGGCGCCTTGGGTTCTAACCTGTTGCTT (site AGGGCGCCTAA)
*A* 1.18

*Q* // recombinant barcode read abundance (log10) lookup, key: CATTATCCTTGGGTTCTAACCTGTTGCGT (site CATTATCCTAC)
*A* 1.59

*Q* // recombinant barcode read abundance (log10) lookup, key: CGAATCCCTTGGGTTCTAACCTGTTGCCT (site CGAATCCCTAG)
*A* 0.809

*Q* // recombinant barcode read abundance (log10) lookup, key: TCTCATTCTTGGGTTCTAACCTGTTGCGT (site TCTAATTCTAC)
*A* 0.0146

*Q* // recombinant barcode read abundance (log10) lookup, key: GGTAACCCTTGGGTTCTAACCTGTTGCGG (site GGTGACCCTCC)
*A* 0.106
